tested on: UO-31; assay: NCI tumour cell line growth inhibition, 48 h
Calls of active or inactive are those of the source. No stated cut-off is given here; in the data, active = GI50 up to about 1.1 µM and inactive = higher.
For each of the compounds below, state its GI50.

Entry "CCC(=O)c1ccc2[nH]c3c(C)c4c(O)cc(C)nc4c(C)c3c2c1" needs its GI50 filled in; supply it.
> 100 µM (inactive)

Entry CCOC(=O)c1cnccc1CC1(C#N)c2ccccc2C=CN1C(=O)c1ccccc1 (stereo unspecified) needs its GI50 filled in; supply it.
27.2 µM (inactive)

Entry COc1c2c(cc3c1OCO3)C13C=CC(OC)CC1N(CC3)C2.[O-][Cl+3]([O-])([O-])O (stereo unspecified) needs its GI50 filled in; supply it.
> 100 µM (inactive)

Entry O=c1[nH]c(=O)n(C2OC(CO)C(O)C2O)cc1OCc1ccccc1 (stereo unspecified) needs its GI50 filled in; supply it.
> 100 µM (inactive)

Entry "Cc1nc(O)nc2nc3ccc(Cl)cc3c(NC(C)(CO)CO)c12" needs its GI50 filled in; supply it.
4.49 µM (inactive)

Entry "N#CCN(Cc1ccccc1)[C@@H]1CCC[C@]1(O)C#Cc1ccc2c(c1)OCO2" needs its GI50 filled in; supply it.
28.2 µM (inactive)

Measured values drawn from ChEMBL document CHEMBL1201862 for this set.
